target: FGF14:Nav1.6 C-tail complex (Homo sapiens, UniProt Q92915+Q9UQD0); construct: polymerase chain reaction (PCR) amplification of the FGF14 open reading frame (nt 1–855); C-terminal fragment of Nav1.6 (amino acids 1763–1976) fused with CD4ΔC-tail (amino acids 1–395); expressed in transfected cells; test: Split-luciferase complementation assay (LCA) in Clone V double stable HEK293 cells; type: cell-based; settings: CC_NCI screening, biological replicate Set 2; normalized to on-plate 0.3% DMSO controls
Sequence (Q92915 1-252 isoform Q92915-2): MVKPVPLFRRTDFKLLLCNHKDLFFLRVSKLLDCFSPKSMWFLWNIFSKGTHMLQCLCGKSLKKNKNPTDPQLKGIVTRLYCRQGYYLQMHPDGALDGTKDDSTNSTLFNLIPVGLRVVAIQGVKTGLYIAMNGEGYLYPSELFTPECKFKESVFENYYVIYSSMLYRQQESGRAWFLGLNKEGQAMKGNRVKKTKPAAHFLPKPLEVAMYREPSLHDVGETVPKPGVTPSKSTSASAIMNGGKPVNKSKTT
Sequence (Q9UQD0 1763-1976 limits assumed): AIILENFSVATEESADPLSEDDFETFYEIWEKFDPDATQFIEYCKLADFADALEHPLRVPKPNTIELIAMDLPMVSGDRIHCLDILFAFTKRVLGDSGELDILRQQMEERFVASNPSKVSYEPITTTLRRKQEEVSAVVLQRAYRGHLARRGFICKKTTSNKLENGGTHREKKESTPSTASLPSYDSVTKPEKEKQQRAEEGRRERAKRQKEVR
Structures can show the parent of a compound that is named as a salt.
Would you mind telling me the reported Split Luciferase Assay Z-score Set 2 of each entry?
One number for each entry.

molecule | Split Luciferase Assay Z-score Set 2
CN(C)C[C@@H]1CCn2cc(c3ccccc32)C2=C(C(=O)NC2=O)c2cn(c3ccccc23)CCO1 [LY 333531, reference compound] | -5.94

Please supply Split Luciferase Assay Z-score Set 2 for each of the following items, keeping them in order.
1. COc1cc(F)c(F)c(Nc2ccc(I)cc2F)c1NS(=O)(=O)C1(C[C@H](O)CO)CC1
2. CCCCCOC(=O)Nc1nc(=O)n([C@@H]2O[C@H](C)[C@@H](O)[C@H]2O)cc1F
3. Nc1ccccc1NC(=O)c1ccc(CNc2nccc(-c3cccnc3)n2)cc1

A:
1. -7.37
2. 1.17
3. -1.96

I need Split Luciferase Assay Z-score Set 2 for every entry listed below, if you could help.
1. Nc1ccn([C@@H]2O[C@H](CO)[C@@H](O)[C@@H]2O)c(=O)n1 [Cytarabine hydrochloride]
2. CCN(CC)CCCC(C)Nc1nc(C)cc(Nc2ccc3nc(C)cc(N)c3c2)n1 (centres unmarked)
3. O=C1NC(=O)/C(=C/c2ccc(-c3ccc(F)cc3O)o2)S1
4. CCCCCCCCc1ccc(CCC(N)(CO)CO)cc1

A:
0.16
-0.01
-4.84
0.58

Provenance of the data: paper PMC6858373
